measurementProtocol: cytotoxicity in HPDE-C7 cells, cell-based, fluorescence, HTS (AID 430);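 note: cells exposed to compound for 48 hours before viability readout; 0% = vehicle and 100% = reference cytotoxic drug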
experimentalSetup: HPDE-C7 pancreatic duct cells viability, at 10 µM, hits give high values
The campaign covered roughly 63,000 compounds. About 1,100 (1.7%) were called active. This excerpt belongs to a sample that is enriched for actives. Entries with a potency or affinity are not part of this list.

# smilesData, valueUnit, cytotoxicity
measured = [
    ("CCN(CC)c1ccc(NC(=O)CN2CCN(CC(=O)Nc3ccc(F)cc3)CC2)cc1", "%", 4.2),
    ("O=C1NC2(CCCC2)N=C1c1ccc(Cl)cc1", "%", -2.7),
    ("O=C(O)c1cc(S(=O)(=O)N2CCCCCC2)ccc1Cl", "%", -1.3),
    ("Cc1cc2nc(-c3ccc(SCC(=O)N4CCOCC4)nc3)[nH]c2cc1C", "%", -15.5),
    ("CC(=O)Nc1cccc(-c2nc3ccc(NC(C)=O)cc3[nH]2)c1", "%", 9.5),
    ("COC(=O)CC(=O)CSc1nc2c(cc1C#N)CCCCC2", "%", 10.3),
    ("O/N=C(/Cc1ccccn1)c1ccccc1", "%", 2),
    ("CCOC(=O)c1ccc(-n2c(=O)[nH]c3ccccc3c2=O)cc1", "%", -12.3),
]

* * *

measurementProtocol: cytotoxicity in HPDE-C7 cells, cell-based, fluorescence, HTS (AID 430);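 note: cells exposed to compound for 48 hours before viability readout; 0% = vehicle and 100% = reference cytotoxic drug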
experimentalSetup: HPDE-C7 pancreatic duct cells viability, at 10 µM, hits give high values
The whole screen tested about 63,000 compounds, of which about 1,100 (1.7%) were called active. What follows is part of a selection rich in actives, with near analogues and random picks from the rest. Entries with a potency or affinity are not part of this list.
Recorded measurements of cytotoxicity, one per entry
measuredParameter: cytotoxicity (%)

# molecule, measuredParameter, valueUnit, measuredResult
records = [
    ("CN1Cc2cc(C(=O)c3cc(Cl)cc(CSc4ncccn4)c3O)cnc2NC1=O", "cytotoxicity", "%", 68.2),
    ("CCc1nnc(NC(=O)c2cccc(OC)c2)s1", "cytotoxicity", "%", -1.7),
    ("CCCn1c(=O)c(C(=O)Nc2nnc(C)s2)c(O)c2ccccc21", "cytotoxicity", "%", 75.2),
    ("CCOC(=O)c1ccccc1NCN1C(=O)CSC1=O", "cytotoxicity", "%", -1.8),
    ("Cc1cccc2cc(CN(Cc3ccco3)C(=O)c3cccs3)c(=O)[nH]c12", "cytotoxicity", "%", -11.9),
    ("CC(C)Cn1c(=O)c(C(=O)Nc2cnccn2)c(O)c2ccccc21", "cytotoxicity", "%", 29.3),
    ("CCCn1c(=O)c(C(=O)Nc2nnc(CC)s2)c(O)c2ccccc21", "cytotoxicity", "%", 51.2),
    ("CCc1nnc(NC(=O)c2c(O)c3cccc4c3n(c2=O)CC4)s1", "cytotoxicity", "%", 34.5),
    ("Cc1ccc(O)c(C(=O)c2cnc3c(c2)CN(CCC(C)C)C(=O)N3)c1", "cytotoxicity", "%", -5.5),
    ("COc1ccccc1C(=O)Nc1nnc(-c2ccc(F)cc2)o1", "cytotoxicity", "%", 4.1),
    ("C=CCNC(=O)C1CC(c2cccc(OC)c2)=NO1 (centres undefined)", "cytotoxicity", "%", -8.4),
    ("CCCn1c(=O)c(C(=O)NCc2ccccn2)c(O)c2ccccc21", "cytotoxicity", "%", -12.9),
    ("CCc1nnc(NC(=O)c2cccc(C(=O)Nc3nnc(CC)s3)n2)s1", "cytotoxicity", "%", 52.5),
    ("Cc1cccc(NC(=O)NCCN2C(=O)C3C4C=CC(C4)C3C2=O)c1 (centres undefined)", "cytotoxicity", "%", 0.7),
]

These data points were gathered from PubChem BioAssay AID430.
